Source: ChEMBL document CHEMBL3785074

assay: Lipophilicity, log P of compound; assay type: physicochemical; conditions: octanol/water; read-out: logP
Hi there, I'd appreciate the recorded logP for every entry that follows.
// keep it numeric: no unit symbol after the value

Form: compound = "O=[N+]([O-])c1ccc2c(c1)OCO2" ; logP = 1.47

Noted for COc1ccc(OC)cc1 [1,4-DIMETHOXYBENZENE] : its logP reads 1.47

Short answer for O=Cc1ccc(O)cc1 [4-HYDROXYBENZALDEHYDE] : logP was 1.15

For record COc1ccccc1 [ANISOLE] the listed logP is 1.44

Short answer for O=Cc1ccccc1 [BENZALDEHYDE] : logP was 1.47

Record O=Cc1ccc(O)c(O)c1 [PROTOCATECHUALDEHYDE] . Reported logP: 2

So for COc1ccccc1C=O [2-METHOXYBENZALDEHYDE] , the logged logP turned out to be 1.15

Value of measured logP for the entry COc1ccccc1OC [1,2-DIMETHOXYBENZENE] : 1.44

Per the record, COc1cccc(OC)c1 [1,3-DIMETHOXYBENZENE] has logP of 1.44

Documented logP of CCOc1cc(C=O)ccc1O [ETHYL VANILLIN] : 1.81

For record Oc1ccccc1O [CATECHOL] the listed logP is 1.48

Kindly note the recorded logP for CC(=O)Oc1ccccc1C(=O)O [ASPIRIN] , which is 1.24

Lab note: "COc1ccc(C=O)cc1" gave logP of 1.19
